assay: Selectivity for housefly GABA receptor over mouse GABA receptor
MEASUREMENT KIND: selectivity ratio
Form rule: numeric answer, no unit written next to it.

- FC(F)(F)c1cc(Cl)c(-n2cc3c(n2)CCC3)c(Cl)c1: 19
- FC1Cc2cn(-c3c(Cl)cc(C(F)(F)F)cc3Cl)nc2C1F (stereo unspecified): 5
- FC1CCc2cn(-c3c(Cl)cc(C(F)(F)F)cc3Cl)nc21 (stereo unspecified): 10

Asked: Which measured selectivity ratio value corresponds to `FC1(F)Cc2cn(-c3c(Cl)cc(C(F)(F)F)cc3Cl)nc2C1` ?
Given back: 1

Asked: Follow-up entry: CC1CCc2nn(-c3c(Cl)cc(C(F)(F)F)cc3Cl)cc21 (stereo unspecified)
Given back: 126

Asked: Follow-up entry: CC1(O)c2cn(-c3c(Cl)cc(C(F)(F)F)cc3Cl)nc2CC1(F)F (stereo unspecified)
Given back: 23

Asked: Follow-up entry: COC1(C)c2cn(-c3c(Cl)cc(C(F)(F)F)cc3Cl)nc2CC1F (stereo unspecified)
Given back: 120

Asked: Follow-up entry: O=C1c2cn(-c3c(Cl)cc(C(F)(F)F)cc3Cl)nc2CC1F (stereo unspecified)
Given back: 10

Asked: Follow-up entry: `O=C1CCc2nn(-c3c(Cl)cc(C(F)(F)F)cc3Cl)cc21`
Given back: 42

src = ChEMBL document CHEMBL1139031
